Organism: Rattus norvegicus
Test: Open TG-GATES - Regimen: Single
Format: toxicity, organism-based, Sprague-Dawley
Parameters: regimen Single, gender Male, age 6 weeks
Details: in vivo, po, 0 mg/kg, 6 h, tissue Blood, route gavage, dose level Control
Each entry below carries its reported PT.
property label: PT (s)

compound: CC(=O)N1CCN(c2ccc(OCC3COC(Cn4ccnc4)(c4ccc(Cl)cc4Cl)O3)cc2)CC1 (configuration not stated)
endpoint unit: s
value observed: 16.9

compound: CC(CCc1ccccc1)NCC(O)c1ccc(O)c(C(N)=O)c1 (configuration not stated)
endpoint unit: s
value observed: 12.9

compound: O=C(O)COc1nn(Cc2ccccc2)c2ccccc12
endpoint unit: s
value observed: 11.7

compound: CC(=O)Nc1ccc2c(c1)Cc1ccccc1-2
endpoint unit: s
value observed: 12.2

compound: CCN(CC)N=O
endpoint unit: s
value observed: 12

compound: CC[C@@H](CO)NCCN[C@@H](CC)CO
endpoint unit: s
value observed: 15.6

compound: CC(C)Cc1ccc(C(C)C(=O)O)cc1 (configuration not stated)
endpoint unit: s
value observed: 15.9
